- TEST_SYSTEM: F508delCFTR (Homo sapiens, UniProt P13569, DEL508-508)
- Construct: expressed in transfected cells; host or cells: CFBE41o- human lung-derived epithelial cells (CFBE4lo-F508delCFTR-HRP), doxycycline-inducible
- Sequence (P13569 with tags, fused parts or gaps DEL508-508): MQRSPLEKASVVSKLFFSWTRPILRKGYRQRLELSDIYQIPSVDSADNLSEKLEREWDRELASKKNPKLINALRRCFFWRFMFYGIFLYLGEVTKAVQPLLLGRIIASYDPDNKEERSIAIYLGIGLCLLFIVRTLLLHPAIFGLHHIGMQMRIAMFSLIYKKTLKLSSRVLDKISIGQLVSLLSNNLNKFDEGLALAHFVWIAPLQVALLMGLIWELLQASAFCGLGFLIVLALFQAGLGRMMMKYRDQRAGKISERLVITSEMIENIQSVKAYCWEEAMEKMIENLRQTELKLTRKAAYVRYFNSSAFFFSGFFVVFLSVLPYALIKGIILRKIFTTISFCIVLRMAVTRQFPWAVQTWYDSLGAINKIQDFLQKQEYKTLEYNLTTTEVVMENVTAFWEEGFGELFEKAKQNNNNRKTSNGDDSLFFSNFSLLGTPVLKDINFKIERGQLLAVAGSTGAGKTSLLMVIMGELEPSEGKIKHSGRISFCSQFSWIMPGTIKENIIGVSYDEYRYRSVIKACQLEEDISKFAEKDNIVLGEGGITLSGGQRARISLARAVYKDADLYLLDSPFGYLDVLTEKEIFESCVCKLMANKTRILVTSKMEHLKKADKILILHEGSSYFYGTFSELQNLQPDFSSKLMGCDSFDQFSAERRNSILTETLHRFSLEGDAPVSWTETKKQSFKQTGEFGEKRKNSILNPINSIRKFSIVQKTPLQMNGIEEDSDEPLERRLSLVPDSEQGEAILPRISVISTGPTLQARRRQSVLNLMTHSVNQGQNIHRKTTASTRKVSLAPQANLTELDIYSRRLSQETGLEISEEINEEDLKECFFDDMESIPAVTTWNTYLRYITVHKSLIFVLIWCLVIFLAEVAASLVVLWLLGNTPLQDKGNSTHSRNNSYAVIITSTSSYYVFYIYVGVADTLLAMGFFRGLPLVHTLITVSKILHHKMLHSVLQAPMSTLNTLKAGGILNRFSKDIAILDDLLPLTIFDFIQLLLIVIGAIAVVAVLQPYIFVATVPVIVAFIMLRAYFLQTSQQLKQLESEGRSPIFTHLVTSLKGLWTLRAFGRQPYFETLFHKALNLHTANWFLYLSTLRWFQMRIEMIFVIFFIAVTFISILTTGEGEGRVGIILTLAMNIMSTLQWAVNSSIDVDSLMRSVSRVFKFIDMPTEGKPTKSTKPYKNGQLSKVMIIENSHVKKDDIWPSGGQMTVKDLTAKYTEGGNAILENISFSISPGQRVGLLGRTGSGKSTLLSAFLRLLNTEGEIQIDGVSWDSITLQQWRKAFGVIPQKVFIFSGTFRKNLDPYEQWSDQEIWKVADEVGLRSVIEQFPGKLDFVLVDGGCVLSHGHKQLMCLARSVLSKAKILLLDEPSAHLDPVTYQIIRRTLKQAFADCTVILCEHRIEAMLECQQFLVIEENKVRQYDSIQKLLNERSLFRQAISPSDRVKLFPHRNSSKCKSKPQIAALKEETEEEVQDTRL
- PROTOCOL_NOTES: Cell Surface Expression-Horse Radish Peroxidase (CSE-HRP) Assay
- Assay type: cell-based
- COND: with co-corrector (2 μM of 3-[(2R,4R)-4-({[1-(2,2-difluoro-1,3-benzodioxol-5-yl)cyclopropyl]carbonyl}amino)-7-methoxy-3,4-dihydro-2H-chromen-2-yl]benzoic acid); read-out: EC50 (with co-corrector)
PROPERTY: EC50

{"columns": ["COMPOUND", "TEST_SYSTEM", "PROPERTY", "RESULT"],
 "data": [
  ["COc1ccc(C(C)(C)C)cc1CN[C@H]1[C@H](C(C)(C)OC)[C@@H](C(=O)O)N(C(=O)OC(C)C)[C@H]1c1ccccc1", "F508delCFTR (Homo sapiens, UniProt P13569, DEL508-508)", "EC50", "1000 to 10000 nM"],
  ["COc1ccc(C(C)(C)C)cc1CN[C@H]1[C@H](C(C)(C)C)[C@@H](C(=O)O)N(C(=O)[C@H]2CCCO2)[C@H]1c1ccccc1", "F508delCFTR (Homo sapiens, UniProt P13569, DEL508-508)", "EC50", "1000 to 10000 nM"],
  ["COc1ccc(C(C)(C)C)cc1CN[C@H]1[C@H](C(C)(C)C)[C@@H](C(=O)O)N(C(=O)C2CCc3ccccc32)[C@H]1c1ccccc1 (stereo partly shown)", "F508delCFTR (Homo sapiens, UniProt P13569, DEL508-508)", "EC50", "< 1000 nM"],
  ["CC(C)(C)[C@@H]1[C@@H](NCc2ccc(Cl)cc2Cl)[C@@H](c2ccccc2)N(C(=O)CC2CCCC2)[C@H]1C(=O)O (racemic)", "F508delCFTR (Homo sapiens, UniProt P13569, DEL508-508)", "EC50", "1000 to 10000 nM"]
]}

* * *

- TEST_SYSTEM: F508delCFTR (Homo sapiens, UniProt P13569, DEL508-508)
- Construct: expressed in transfected cells; host or cells: CFBE41o- human lung-derived epithelial cells (CFBE4lo-F508delCFTR-HRP), doxycycline-inducible
- PROTOCOL_NOTES: Cell Surface Expression-Horse Radish Peroxidase (CSE-HRP) Assay
- Assay type: cell-based
- COND: test compound without co-corrector; read-out: EC50 (without co-corrector)
PROPERTY: EC50

{"columns": ["COMPOUND", "PROPERTY", "RESULT"],
 "data": [
  ["CC(C)(C)[C@H]1[C@H](NCc2ccc(C(F)(F)F)cc2)[C@H](c2ccccc2)N(C(=O)C2CCCCC2)[C@@H]1C(=O)O [III-138]", "EC50", "> 10000 nM"],
  ["COc1cc2ccccc2cc1CN[C@@H]1[C@H](C(C)(C)C)[C@@H](C(=O)O)N(C(=O)OC(C)C)[C@H]1c1ccccc1 [II-554]", "EC50", "1000 to 10000 nM"],
  ["COc1ccc(C(C)(C)C)cc1CN[C@H]1[C@H](C(C)(C)C)[C@@H](C(=O)O)N(C(=O)C2CCCN(C)C2=O)[C@H]1c1ccccc1 (single isomer, unassigned) [Example I-191]", "EC50", "1000 to 10000 nM"],
  ["COc1ccc(C(C)(C)C)cc1CN[C@H]1[C@H](C(C)(C)C)[C@@H](C(=O)O)N(C(=O)C2CCc3cc(Cl)ccc32)[C@H]1c1ccccc1 (stereo partly shown) [II-369]", "EC50", "< 1000 nM"],
  ["COc1ncc(C(C)(C)C)cc1CN[C@H]1[C@H](C(C)(C)C)[C@@H](C(=O)O)N(C(=O)C2CCCCC2)[C@H]1c1ccccc1 [Example 27]", "EC50", "1000 to 10000 nM"],
  ["COc1ccc(C(C)(C)C)cc1CN[C@H]1[C@H](C(C)(C)C)[C@@H](C(=O)O)N(C(=O)[C@H](C)c2ccccc2)[C@H]1c1cccnc1N(C)C [Example I-233]", "EC50", "1000 to 10000 nM"],
  ["COc1ccc(C(C)(C)C)cc1CN[C@H]1[C@H](C(C)(C)C)[C@@H](C(=O)O)N(C(=O)O[C@H]2C[C@@H](C)CC[C@@H]2C(C)C)[C@H]1c1ccccc1 [II-386]", "EC50", "< 1000 nM"],
  ["COc1c(C#N)c(N[C@H]2[C@H](C(C)(C)C)[C@@H](C(=O)O)N(C(=O)C3CCCCC3)[C@H]2c2ccccc2)nc2ccccc12 [Example I-55]", "EC50", "1000 to 10000 nM"],
  ["COc1ccc(C(C)(C)C)cc1CN[C@H]1[C@H](C(C)(C)C)[C@@H](C(=O)O)N(C(=O)[C@@H]2OCC[C@@H]2c2ccccc2)[C@H]1c1ccccc1 (relative stereo) [Example I-178]", "EC50", "1000 to 10000 nM"],
  ["COc1cc(Cl)cnc1N[C@@H]1[C@@H](C(C)(C)OC)[C@H](C(=O)O)N(C(=O)C2CCCCC2)[C@@H]1c1ccccc1 (racemic) [III-111]", "EC50", "1000 to 10000 nM"],
  ["COc1ccc(C(C)(C)C)cc1CN[C@H]1[C@H](C(C)(C)C)[C@@H](C(=O)O)N(C(=O)C2CCN(C(=O)C3CC3)CC2)[C@H]1c1ccccc1 [II-316]", "EC50", "1000 to 10000 nM"],
  ["CCCCOC(=O)N1[C@H](C(=O)O)[C@@H](C(C)(C)C)[C@H](NCc2cc(C(C)(C)C)ccc2OC)[C@@H]1c1ccccc1 [II-383]", "EC50", "1000 to 10000 nM"],
  ["COc1ncc(CN[C@@H]2[C@@H](C(C)(C)C)[C@H](C(=O)O)N(C(=O)C3CCCCC3)[C@@H]2c2ccccc2)c(OC)n1 (racemic) [III-29]", "EC50", "1000 to 10000 nM"],
  ["COc1ccc(C(C)(C)C)cc1CN[C@H]1[C@H](C(C)(C)C)[C@@H](C(=O)O)N(C(=O)[C@@H]2C[C@H]3CC[C@@H]2O3)[C@H]1c1cccnc1OC (relative stereo) [II-522]", "EC50", "1000 to 10000 nM"],
  ["COc1ccc(C(C)(C)C)cc1CN[C@H]1[C@H](C(C)(C)C)[C@@H](C(=O)O)N(C(=O)[C@H]2OCC[C@H]2C(C)C)[C@H]1c1ccccc1 (relative stereo) [Example 23]", "EC50", "1000 to 10000 nM"],
  ["COc1ccc(C23CC(C2)C3)cc1CN[C@H]1[C@H](C(C)(C)C)[C@@H](C(=O)O)N(C(=O)C2CCCCC2)[C@H]1c1ccccc1OC [II-484]", "EC50", "< 1000 nM"]
]}
